- Assay Procedure: A qHTS for Small Molecule Inhibitors of Shiga Toxin; further: 0% is about no effect
- Condition Parameters: Vero cells, Shiga toxin protein synthesis inhibition reporter; at 38.7 µM
Hit rate of the full screen: of about 290,000 compounds, about 27,000 (9.3%) were called active. No stated cut-off is given here; in the data, active means inhibition mostly above about 28% (no sharp cut-off); inactive means mostly below about 43%. This is one part of a sample in which actives are shown more often than they occur.
Respond only with the outcome that fits, drawn from active, inactive

Illustrative cases are given below, each with its answer.
{"Compound": "CCOc1ccccc1C1CC(c2cccc(NS(C)(=O)=O)c2)=NN1C(=O)c1ccccc1 (stereo not given)", "Cat": "inactive"}
{"Compound": "CC(=O)Nc1cccc(-c2nc3ccccc3s2)c1C", "Cat": "active"}
{"Compound": "O=[N+]([O-])c1ccc(N(CCO)Cc2ccccc2)c([N+](=O)[O-])c1", "Cat": "inactive"}
{"Compound": "CCOc1cccc(/C=N/N2C(=O)CSC2=S)c1O", "Cat": "active"}
{"Compound": "COc1ccc(N(C(=O)c2snc(C(N)=O)c2N)C(C(=O)NC2CCCC2)c2ccc(C)o2)c(OC)c1 (stereo not given)", "Cat": "inactive"}
{"Compound": "CCOc1cccc(/C=N/NC(=S)NCCN2CCOCC2)c1O", "Cat": "inactive"}
{"Compound": "CC(C)c1ccc(N(C(=O)c2ccco2)C(C(=O)NC2CCCC2)c2cccnc2)cc1 (stereo not given)", "Cat": "inactive"}
{"Compound": "Oc1ccc(-c2[nH]ncc2-c2nc3ccccc3s2)c(O)c1", "Cat": "inactive"}
{"Compound": "Cc1cc(C)c(S(=O)(=O)Nc2c(C)n(C)n(-c3ccccc3)c2=O)cc1[N+](=O)[O-]", "Cat": "inactive"}

Note: attention shifts to another entry.
QUERY: Assay result, entry c1cncc(-c2nnc3n2C2(CCCCC2)Cc2ccccc2-3)c1 — outcome?
RESULT: inactive

---

Listed below: inhibition values for each entry.
- Assay Procedure: A qHTS for Small Molecule Inhibitors of Shiga Toxin; further: 0% is about no effect
- Condition Parameters: Vero cells, Shiga toxin protein synthesis inhibition reporter; at 38.7 µM, active compounds read high
Among all 290,000 compounds or so, about 27,000 (9.3%) were called active. Shown is part of a subset that was picked to be rich in actives.
Numeric only. Scale: %

Here is how some molecules turned out for inhibition.
{"Molecule": "O=C(N/N=C/c1ccco1)c1csc2c1CCCC2", "inhibition, %": 122}
{"Molecule": "COC(=O)C(C)n1cnc2c(nnn2-c2ccc(F)cc2)c1=O (centres undefined)", "inhibition, %": 8.93}
{"Molecule": "O=C(N/N=C/c1ccco1)c1ccc(NC(=O)C2CC2)cc1", "inhibition, %": -2.21}
{"Molecule": "COC(=O)c1ccc(CSc2nncn2C)cc1", "inhibition, %": 177}
{"Molecule": "Cc1ccc(NC(=O)c2c(NC(=O)CCC(=O)O)sc3c2CCCCC3)cc1", "inhibition, %": 42.9}
{"Molecule": "C=CCN(C(=O)Nc1ccc2c(c1)nc(C)n2C)c1ccccc1", "inhibition, %": 46.7}

QUERY: Entry FC(F)(F)c1cccc(N/N=C/c2ccccc2)c1 : reported inhibition = ?
RESULT: 33.8

QUERY: Entry O=C(N/N=C/c1cccc([N+](=O)[O-])c1)c1ccncc1 : reported inhibition = ?
RESULT: 22.3

---

- Assay Procedure: A qHTS for Small Molecule Inhibitors of Shiga Toxin; further: 0% is about no effect
- Condition Parameters: Vero cells, Shiga toxin protein synthesis inhibition reporter; at 38.7 µM, active compounds read high
Hit rate of the full screen: of about 290,000 compounds, about 27,000 (9.3%) were called active. Only a selection was taken, and actives are over-represented in it overall.
Listed below: inhibition values for each entry.

{"Smiles Input": "O=C(NCCc1csc(-c2ccccc2)n1)c1ccccc1F", "Experimental Result": "40.5% (inactive)"}
{"Smiles Input": "Cc1ccc(C)c(NC(=S)NNC(=S)Nc2ccc(C(C)C)cc2)c1", "Experimental Result": "50.1% (active)"}
{"Smiles Input": "COc1ccc(-c2csc(NC(=O)COC(=O)Cc3ccc(Cl)cc3Cl)n2)cc1", "Experimental Result": "64% (active)"}
{"Smiles Input": "CCOC(=O)CC1(NC(=O)c2cc(COc3cncc(Cl)c3)on2)CCCCC1", "Experimental Result": "-11.8% (inactive)"}
{"Smiles Input": "COc1cc(Cl)ccc1OCc1cc(C(=O)N2CC[C@@H]3CCCC[C@H]3C2)no1", "Experimental Result": "120% (active)"}
{"Smiles Input": "CSC(=S)N/N=C/c1c[nH]c2ccccc12", "Experimental Result": "18.5% (inactive)"}
{"Smiles Input": "Cn1nnc(NC(=S)NC(=O)c2ccccc2)n1", "Experimental Result": "64.6% (active)"}
{"Smiles Input": "COc1ccc(C(=O)NNC(=S)NC(=O)c2ccccc2)cc1", "Experimental Result": "31.4% (inactive)"}
{"Smiles Input": "COc1ccc(CC(=O)Nc2nc(-c3ccc(F)c(F)c3)cs2)cc1OC", "Experimental Result": "-2.51% (inactive)"}
{"Smiles Input": "COc1cc(CC(=O)Nc2nc(-c3ccc(F)c(F)c3)cs2)cc(OC)c1OC", "Experimental Result": "-5.98% (inactive)"}

QUERY: Entry COc1ccc(OCc2cc(C(=O)N3CCCC3)no2)c2ccccc12 : reported inhibition = ?
RESULT: 147% (active)

QUERY: Entry Cc1ccccc1NC(=S)NNC(=O)c1cccc(Br)c1 : reported inhibition = ?
RESULT: 48.8% (inactive)

QUERY: Entry Cc1cc(C(=O)NNC(=S)Nc2ccccc2C)cs1 : reported inhibition = ?
RESULT: 66.8% (active)

QUERY: Entry CC(C)(C)NC(=O)NC(=O)COC(=O)Cc1ccc(Cl)cc1Cl : reported inhibition = ?
RESULT: 16.6% (inactive)

QUERY: Entry COc1ccccc1N1CCN(C(=O)c2cc(-c3ccc(Cl)c(Cl)c3)on2)CC1 : reported inhibition = ?
RESULT: 0.847% (inactive)

QUERY: Entry COc1cccc(-c2cc(C(=O)N3CCN(c4ccccc4OC)CC3)no2)c1 : reported inhibition = ?
RESULT: -4.9% (inactive)

QUERY: Entry Cc1ccccc1NC(=S)NC(=O)Cc1ccc(Cl)cc1 : reported inhibition = ?
RESULT: -4.05% (inactive)

QUERY: Entry COc1ccc(Cl)cc1C(=O)NNC(=S)NC1CCCC1 : reported inhibition = ?
RESULT: -7.04% (inactive)

QUERY: Entry O=C(N/N=C/c1c[nH]c2ccccc12)c1cc2ccccc2o1 : reported inhibition = ?
RESULT: 51.6% (active)

QUERY: Entry CC(C)c1ccc(NC(=S)NNc2ccc(Cl)c(C(=O)O)c2)cc1 : reported inhibition = ?
RESULT: 52% (inactive)

QUERY: Entry COc1ccccc1OCc1ccc(C(=O)N2CCN(C)CC2)o1 : reported inhibition = ?
RESULT: 10.1% (inactive)

QUERY: Entry Cc1ccc(C(=O)NC(=S)Nc2ccc(N3CCOCC3)cc2)cc1 : reported inhibition = ?
RESULT: 30% (inactive)

QUERY: Entry CCOC(=O)c1c(-c2ccccc2)csc1NC(=S)NC(=O)c1ccccc1 : reported inhibition = ?
RESULT: -2.96% (inactive)

---

- Assay Procedure: A qHTS for Small Molecule Inhibitors of Shiga Toxin; further: 0% is about no effect
- Condition Parameters: Vero cells, Shiga toxin protein synthesis inhibition reporter; at 38.7 µM
The campaign covered roughly 290,000 compounds. About 27,000 (9.3%) were called active. Cut-off read from the data, not from the text of the source: active = inhibition mostly above about 28% (no sharp cut-off); inactive = mostly below about 43%. The entries come from a sample that favours actives as a whole.
Respond only with the outcome that fits, drawn from Yes = active, No = inactive

Illustrative cases are given below, each with its answer.
{"Compound": "C=CCSc1nsc(NC(=O)Nc2cccc(C(C)=O)c2)n1", "Cat": "No"}
{"Compound": "COc1cc(S(=O)(=O)Nc2ncn[nH]2)ccc1Cl", "Cat": "No"}
{"Compound": "CCSc1nsc(NC(=O)Nc2cccc(C(C)=O)c2)n1", "Cat": "Yes"}
{"Compound": "COc1cc2c(cc1OC)C(c1ccccc1Br)NC(=O)C2 (configuration not stated)", "Cat": "No"}
{"Compound": "COc1ccc(C(=O)CCC(=O)Nc2ccc(Cl)cc2)cc1", "Cat": "No"}
{"Compound": "O=c1cc(-c2ccc(O)cc2)oc2c(-c3cc(-c4cc(=O)c5c(O)cc(O)cc5o4)ccc3O)c(O)ccc12", "Cat": "No"}
{"Compound": "CCCc1nn2c(=O)cc(CSCC(=O)Nc3cccc(C)c3)nc2s1", "Cat": "No"}
{"Compound": "CC(C)=CCc1c(O)c(CC=C(C)C)c2occ(-c3ccc(O)cc3)c(=O)c2c1O", "Cat": "Yes"}
{"Compound": "CCn1cc(/C=C(\\NC(=O)c2cc(OC)c(OC)c(OC)c2)C(=O)N2CCN(C)CC2)c2ccccc21", "Cat": "No"}
{"Compound": "O=C(N/N=C/c1ccoc1)c1ccc(Cl)cc1Cl", "Cat": "Yes"}

QUERY: Assay result, entry Nc1nc(SCC(=O)Nc2cc(C(F)(F)F)ccc2Cl)[nH]c(=O)c1NC(=O)c1ccco1 — outcome?
RESULT: No

QUERY: Assay result, entry CC(=O)c1ccccc1OCc1ccc(C(=O)c2ccccc2)cc1 — outcome?
RESULT: No

QUERY: Assay result, entry COc1ccc(-c2cc(=O)c3c(O)cc(O[C@@H]4O[C@H](CO[C@@H]5O[C@@H](C)[C@H](O)[C@@H](O)[C@H]5O)[C@@H](O)[C@H](O)[C@H]4O)cc3o2)cc1O — outcome?
RESULT: No

QUERY: Assay result, entry Cc1ccc(C(=O)NNC2=Nc3cc([N+](=O)[O-])ccc3OC2)cc1 — outcome?
RESULT: No

QUERY: Assay result, entry Cc1ccc(S(=O)(=O)N(Cc2ccccc2)c2ccccn2)cc1[N+](=O)[O-] — outcome?
RESULT: No

QUERY: Assay result, entry CN(Cc1ccccc1)CC(O)COc1ccc(CNCc2cc3ccccc3s2)cc1 (configuration not stated) — outcome?
RESULT: No

QUERY: Assay result, entry Cc1ccc(C)c(NC(CC(=O)c2ccccc2)C(=O)OCC(=O)c2cccs2)c1 (configuration not stated) — outcome?
RESULT: No

QUERY: Assay result, entry CC(C)NC(=O)c1ccc(Cl)cc1Cl — outcome?
RESULT: No

QUERY: Assay result, entry CCOC(=O)C(C)n1cnc2scc(-c3ccc(C)c(C)c3)c2c1=O (configuration not stated) — outcome?
RESULT: No
